- experimental system: T1, recombinant human LRRC33-proTGFβ1 complex (Homo sapiens, UniProt P01137)
- T1 construct: made in house
- T1 sequence (P01137 30-390): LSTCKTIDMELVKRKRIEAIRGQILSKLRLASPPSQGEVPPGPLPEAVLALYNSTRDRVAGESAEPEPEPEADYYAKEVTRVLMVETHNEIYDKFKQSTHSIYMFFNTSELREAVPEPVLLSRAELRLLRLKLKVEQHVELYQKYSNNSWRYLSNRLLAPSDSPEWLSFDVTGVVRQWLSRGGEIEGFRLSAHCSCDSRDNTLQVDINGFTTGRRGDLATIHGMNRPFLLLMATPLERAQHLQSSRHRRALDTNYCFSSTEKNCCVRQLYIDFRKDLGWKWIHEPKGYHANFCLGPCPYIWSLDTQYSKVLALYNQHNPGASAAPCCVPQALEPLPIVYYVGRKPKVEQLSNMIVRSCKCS
- T1 sequence (Q86YC3 19-650 partner limits assumed): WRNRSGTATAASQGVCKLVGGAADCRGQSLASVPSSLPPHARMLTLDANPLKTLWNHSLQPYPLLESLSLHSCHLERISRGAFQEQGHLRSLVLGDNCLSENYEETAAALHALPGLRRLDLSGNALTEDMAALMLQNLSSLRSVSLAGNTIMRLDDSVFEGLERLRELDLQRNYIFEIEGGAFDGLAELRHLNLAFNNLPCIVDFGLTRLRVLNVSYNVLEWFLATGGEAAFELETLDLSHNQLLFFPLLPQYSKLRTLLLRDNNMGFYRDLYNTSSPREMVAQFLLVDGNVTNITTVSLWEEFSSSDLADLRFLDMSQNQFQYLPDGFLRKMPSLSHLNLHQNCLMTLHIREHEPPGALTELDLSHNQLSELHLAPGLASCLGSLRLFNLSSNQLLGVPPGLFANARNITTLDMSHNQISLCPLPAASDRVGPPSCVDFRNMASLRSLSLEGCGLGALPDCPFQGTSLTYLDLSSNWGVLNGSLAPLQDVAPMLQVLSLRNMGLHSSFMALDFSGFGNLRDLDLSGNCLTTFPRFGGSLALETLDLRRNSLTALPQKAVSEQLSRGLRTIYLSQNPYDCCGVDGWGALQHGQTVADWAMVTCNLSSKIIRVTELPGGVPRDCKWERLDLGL
- experimental details: Octet (Biolayer Interferometry) in vitro kinetic binding
- assay setup: in M
For each record, write down the corresponding (F) hLRRC33, Cell-associated proTGFb1 (KD).
One number for each entry.

Worked cases, (F) hLRRC33, Cell-associated proTGFb1 (KD) given:
Ab20: monoclonal antibody; VH SEQ ID NO: 251, VL SEQ ID NO: 241 (antibody, V domains shown) VH: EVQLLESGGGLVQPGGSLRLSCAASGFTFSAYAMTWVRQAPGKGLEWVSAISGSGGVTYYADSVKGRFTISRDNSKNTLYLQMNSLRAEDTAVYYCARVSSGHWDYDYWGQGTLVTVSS VL: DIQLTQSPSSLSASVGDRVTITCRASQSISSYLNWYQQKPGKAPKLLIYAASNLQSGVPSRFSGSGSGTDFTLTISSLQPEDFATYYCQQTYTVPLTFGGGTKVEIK = 5.45E−10
Ab23: monoclonal antibody; VH SEQ ID NO: 131, VL SEQ ID NO: 15 (antibody, V domains shown) VH: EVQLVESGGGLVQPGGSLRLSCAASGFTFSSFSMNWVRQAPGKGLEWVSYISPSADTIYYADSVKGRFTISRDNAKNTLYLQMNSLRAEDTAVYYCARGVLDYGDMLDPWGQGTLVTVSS VL: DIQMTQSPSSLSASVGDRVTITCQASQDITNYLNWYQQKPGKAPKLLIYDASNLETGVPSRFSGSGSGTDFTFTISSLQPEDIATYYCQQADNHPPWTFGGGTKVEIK = 4.55E−10
Ab28: monoclonal antibody; VH SEQ ID NO: 136, VL SEQ ID NO: 15 (antibody, V domains shown) VH: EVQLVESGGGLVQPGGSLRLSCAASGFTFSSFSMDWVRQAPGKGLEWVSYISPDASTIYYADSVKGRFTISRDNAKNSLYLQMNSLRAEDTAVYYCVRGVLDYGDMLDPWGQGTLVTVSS VL: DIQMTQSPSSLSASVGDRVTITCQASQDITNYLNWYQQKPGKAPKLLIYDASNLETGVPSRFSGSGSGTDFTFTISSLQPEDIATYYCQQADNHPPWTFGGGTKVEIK = 4.09E−10
Ab12: monoclonal antibody; VH SEQ ID NO: 237, VL SEQ ID NO: 241 (antibody, V domains shown) VH: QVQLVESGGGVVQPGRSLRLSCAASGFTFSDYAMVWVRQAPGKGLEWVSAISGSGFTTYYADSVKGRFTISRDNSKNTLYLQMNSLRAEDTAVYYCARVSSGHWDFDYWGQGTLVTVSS VL: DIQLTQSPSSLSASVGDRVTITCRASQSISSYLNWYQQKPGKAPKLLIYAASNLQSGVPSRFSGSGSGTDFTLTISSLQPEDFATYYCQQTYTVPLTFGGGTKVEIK = 7.75E−10
Ab27: monoclonal antibody; VH SEQ ID NO: 135, VL SEQ ID NO: 15 (antibody, V domains shown) VH: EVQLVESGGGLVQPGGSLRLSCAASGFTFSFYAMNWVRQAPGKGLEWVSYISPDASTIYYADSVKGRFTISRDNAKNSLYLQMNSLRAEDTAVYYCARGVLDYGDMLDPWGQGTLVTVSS VL: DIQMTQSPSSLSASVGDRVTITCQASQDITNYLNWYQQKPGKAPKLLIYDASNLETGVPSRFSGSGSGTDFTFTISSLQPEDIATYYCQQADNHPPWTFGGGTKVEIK = 2.99E−10

Hi team, please reply with (F) hLRRC33, Cell-associated proTGFb1 (KD) for each item in this list.
1. Ab30: monoclonal antibody; VH SEQ ID NO: 138, VL SEQ ID NO: 15 (antibody, V domains shown) VH: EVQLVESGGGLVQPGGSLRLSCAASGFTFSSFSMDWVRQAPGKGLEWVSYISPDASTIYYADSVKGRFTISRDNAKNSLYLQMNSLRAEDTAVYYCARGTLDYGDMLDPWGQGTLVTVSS VL: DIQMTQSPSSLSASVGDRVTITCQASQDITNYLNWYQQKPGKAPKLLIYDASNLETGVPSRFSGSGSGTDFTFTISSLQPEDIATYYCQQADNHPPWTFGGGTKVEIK
2. Ab17: monoclonal antibody; VH SEQ ID NO: 248, VL SEQ ID NO: 241 (antibody, V domains shown) VH: EVQLLESGGGVVQPGGSLRLSCAASGFTFSSFAMTWVRQAPGKGLEWVSAISGSGAATYFADSVKGRFTISRDNSKNTLYLQMNSLRAEDTAVYYCARVSSGHWDFDYWGQGTLVTVSS VL: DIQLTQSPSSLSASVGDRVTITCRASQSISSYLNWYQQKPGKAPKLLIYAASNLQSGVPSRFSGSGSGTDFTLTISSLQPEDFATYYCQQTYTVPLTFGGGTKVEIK
3. Ab24: monoclonal antibody; VH SEQ ID NO: 132, VL SEQ ID NO: 15 (antibody, V domains shown) VH: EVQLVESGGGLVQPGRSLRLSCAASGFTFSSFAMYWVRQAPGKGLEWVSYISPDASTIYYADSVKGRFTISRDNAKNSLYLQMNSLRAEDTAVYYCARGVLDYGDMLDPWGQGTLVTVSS VL: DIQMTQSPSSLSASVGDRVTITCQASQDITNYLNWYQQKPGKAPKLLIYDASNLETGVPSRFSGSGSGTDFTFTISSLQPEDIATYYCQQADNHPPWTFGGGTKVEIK
4. Ab15: monoclonal antibody; VH SEQ ID NO: 245, VL SEQ ID NO: 241 (antibody, V domains shown) VH: EVQLVESGGGVVQPGRSLRLSCAASGFTFSDYAMVWVRQAPGKGLEWVSAISGSGFTTYYADSVKGRFTISRDNSKNTLYLQMNSLRAEDTAVYYCARVSSGHWDFDYWGQGTLVTVSS VL: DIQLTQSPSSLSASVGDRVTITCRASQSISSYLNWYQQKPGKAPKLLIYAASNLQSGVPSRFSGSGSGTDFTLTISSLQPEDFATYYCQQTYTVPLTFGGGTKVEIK

1: 5.35E−10; 2: 6.58E−10; 3: 4.10E−10; 4: 7.02E−10
